# measurement-description: Solubility C of the compound in n-decane at 5° C. (saturated solution, absorbance) and product εC
# Type: physicochemical
# condition-parameters: in n-decane at 5° C., 24 hours, 0.1-μm filter
Solubility C values, listed per item

* CCCCc1ccc(N=Nc2sc(N=Nc3ccc(N(CC(CC)CCCC)CC(CC)CCCC)cc3C)c(C#N)c2C)cc1 (centres unmarked) [Compound 2] | 1.7 mass %
* CCCCCCSc1nnc(N=Nc2cc(OC)c(N(Cc3ccc(C(C)(C)C)cc3)Cc3ccc(C(C)(C)C)cc3)cc2NC(C)=O)s1 [compound 1, reference compound] | 9.1 mass %

The record that follows has no Solubility C shown yet.
Quick one: Solubility C of CCCCc1ccc(N=Nc2cc(C(=O)OCCC)c(N=Nc3ccc(N(CC(CC)CCCC)CC(CC)CCCC)cc3C)s2)cc1 (centres unmarked) [Compound 7] ?
17.4 mass %
